Value source: paper PMC11272085

target: UniProt A0A0H2XF42; assay: Oxygen consumption assay, MRSA bd-only membranes; conditions: read-out: IC50 oxygen consumption; MRSA bd-only membranes 1 mg/mL, 500 µM NADH
Sequence (A0A0H2XF42 entry or part of it): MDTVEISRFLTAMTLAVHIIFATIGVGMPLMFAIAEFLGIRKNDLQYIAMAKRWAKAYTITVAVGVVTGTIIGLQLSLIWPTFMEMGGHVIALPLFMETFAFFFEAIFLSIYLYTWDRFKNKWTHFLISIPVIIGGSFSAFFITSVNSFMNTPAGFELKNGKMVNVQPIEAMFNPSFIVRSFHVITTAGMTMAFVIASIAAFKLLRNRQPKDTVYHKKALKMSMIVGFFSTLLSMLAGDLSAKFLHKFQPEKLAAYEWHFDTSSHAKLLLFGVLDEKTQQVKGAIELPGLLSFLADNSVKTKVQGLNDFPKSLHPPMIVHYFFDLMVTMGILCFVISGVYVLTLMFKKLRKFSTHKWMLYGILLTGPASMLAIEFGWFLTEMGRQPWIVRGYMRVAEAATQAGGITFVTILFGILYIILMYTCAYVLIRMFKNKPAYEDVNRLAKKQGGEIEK
Sequence (A0A0H2XJA4 entry or part of it, further chain): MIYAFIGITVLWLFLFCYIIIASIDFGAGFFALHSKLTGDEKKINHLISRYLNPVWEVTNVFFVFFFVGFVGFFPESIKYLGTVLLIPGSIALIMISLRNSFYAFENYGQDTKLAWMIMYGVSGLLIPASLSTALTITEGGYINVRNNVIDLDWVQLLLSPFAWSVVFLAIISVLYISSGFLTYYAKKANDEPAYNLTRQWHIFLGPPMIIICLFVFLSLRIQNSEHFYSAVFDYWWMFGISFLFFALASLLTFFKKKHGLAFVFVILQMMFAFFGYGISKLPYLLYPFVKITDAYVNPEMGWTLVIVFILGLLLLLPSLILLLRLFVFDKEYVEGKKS
MEASUREMENT KIND: pIC50
Lab note — pIC50 values are minus log10 of concentrations in M.

Input C#C[C@]1(O)CC[C@H]2[C@@H]3CCc4cc(OC5CCCC5)ccc4[C@H]3CC[C@@]21C . Output pIC50: 5.57
